# tgt: OCT2 (Homo sapiens)
# Construct: host or cells: HEK293 (transient overexpression)
# Sequence (O15244 whole entry): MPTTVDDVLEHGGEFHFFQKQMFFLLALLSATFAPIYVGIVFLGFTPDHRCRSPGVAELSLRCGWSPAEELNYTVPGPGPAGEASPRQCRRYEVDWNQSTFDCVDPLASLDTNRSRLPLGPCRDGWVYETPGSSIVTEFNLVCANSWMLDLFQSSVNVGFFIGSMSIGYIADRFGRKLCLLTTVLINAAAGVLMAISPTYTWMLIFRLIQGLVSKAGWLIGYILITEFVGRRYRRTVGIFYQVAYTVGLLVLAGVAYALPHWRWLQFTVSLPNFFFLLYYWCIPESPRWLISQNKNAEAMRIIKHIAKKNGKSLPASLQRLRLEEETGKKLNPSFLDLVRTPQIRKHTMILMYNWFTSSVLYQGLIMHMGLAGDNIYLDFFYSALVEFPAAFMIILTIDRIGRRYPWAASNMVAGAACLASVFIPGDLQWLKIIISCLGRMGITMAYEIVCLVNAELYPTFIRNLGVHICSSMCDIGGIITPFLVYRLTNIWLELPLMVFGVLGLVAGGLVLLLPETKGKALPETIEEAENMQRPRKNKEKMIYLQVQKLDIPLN
# measurementProtocol: Uptake of [3-H]methyl-4-phenylpyridinium in HEK293-OCT2 cells
# Format: in vitro ADME
propertyLabel: IC50

Consider the compound shown here: `CCCCCn1nc(C(=O)NC23CC4CC(CC(C4)C2)C3)c2ccccc21` What is its recorded IC50?
> 250 µM

* * *

# tgt: CYP2B6 (Homo sapiens)
# Sequence (P20813 whole entry): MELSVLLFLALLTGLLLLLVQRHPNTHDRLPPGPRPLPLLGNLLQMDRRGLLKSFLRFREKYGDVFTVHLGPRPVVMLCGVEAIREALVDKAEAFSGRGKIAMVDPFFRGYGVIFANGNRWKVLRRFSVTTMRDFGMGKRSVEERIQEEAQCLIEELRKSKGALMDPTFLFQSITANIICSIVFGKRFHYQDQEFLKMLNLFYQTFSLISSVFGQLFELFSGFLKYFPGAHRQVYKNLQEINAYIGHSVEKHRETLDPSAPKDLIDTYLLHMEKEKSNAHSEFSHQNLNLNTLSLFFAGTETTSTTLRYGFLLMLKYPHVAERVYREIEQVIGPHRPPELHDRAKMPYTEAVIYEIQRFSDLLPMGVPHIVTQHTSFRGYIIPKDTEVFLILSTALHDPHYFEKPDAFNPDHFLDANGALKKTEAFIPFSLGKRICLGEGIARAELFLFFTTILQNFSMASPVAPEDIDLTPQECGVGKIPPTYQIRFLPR
# measurementProtocol: Inhibition of CYP2B6-mediated bupropion hydroxylase in ultrapooled human liver microsomes
# Assay type: in vitro ADME
# measurementConditions: read-out: IC50 (μM) With Preincubation, CYP2B6 bupropion hydroxylase; ultrapooled human liver microsomes; 30-min preincubation with NADPH
propertyLabel: IC50

Need IC50, item `CCCCCn1nc(C(=O)NC23CC4CC(CC(C4)C2)C3)c2ccccc21`
> 100 µM
